test system: Escherichia coli TOP10; assay: shrunken log2 fold change of peptide-encoding DNA abundance (4.5 h post-induction vs induction); higher = less antimicrobial activity (less host growth inhibition); conditions: time post-induction: 4.5 h; library: site-saturation at positions 5, 18, 19, 20;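 further: peptides expressed intracellularly from a pBAD plasmid library in pooled LB shake-flask culture, induced with 0.3% L-arabinose, DNA abundance read by NGS, three biological replicates, DESeq2 with apeglm shrinkage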
Label criterion met when shrunken log2 fold change is at or above 0.01; anything below gets criterion not met.

RRIRHRPPRLPRPRPRPALQPRP    criterion met
RRIRNRPPRLPRPRPRPMEFPRP    criterion not met
RRIRSRPPRLPRPRPRPKNFPRP    criterion not met
RRIRERPPRLPRPRPRPGRLPRP    criterion not met
RRIRPRPPRLPRPRPRPTYNPRP    criterion not met
RRIRHRPPRLPRPRPRPPMHPRP    criterion not met
RRIRIRPPRLPRPRPRPFTPPRP    criterion not met
RRIRTRPPRLPRPRPRPVMWPRP    criterion not met

Decide: shrunken log2 fold change of `RRIRRRPPRLPRPRPRPDTIPRP` >= 0.01?
criterion not met

Decide: shrunken log2 fold change of `RRIRLRPPRLPRPRPRPDYPPRP` >= 0.01?
criterion not met

Decide: shrunken log2 fold change of `RRIRERPPRLPRPRPRPIRPPRP` >= 0.01?
criterion not met

Decide: shrunken log2 fold change of `RRIRIRPPRLPRPRPRPPHLPRP` >= 0.01?
criterion not met

Decide: shrunken log2 fold change of `RRIRMRPPRLPRPRPRPCEHPRP` >= 0.01?
criterion met

Decide: shrunken log2 fold change of `RRIRIRPPRLPRPRPRPSFDPRP` >= 0.01?
criterion not met

Decide: shrunken log2 fold change of `RRIRCRPPRLPRPRPRPTYQPRP` >= 0.01?
criterion not met

Decide: shrunken log2 fold change of `RRIRARPPRLPRPRPRPQYWPRP` >= 0.01?
criterion not met
